Consider the following compounds and their measured Ames test: ratio of number of colonies to control readings.
# Tested on: strains TA98
# Assay type: cell-based
# test.parameters: 20 μg/plate, without S-9
Would you mind answering with just the numeric figure?

# compound, tested.target, data.value
data = [
    ("CCC(C)c1ccc(N=Nc2c(S(=O)(=O)O)cc3cc(S(=O)(=O)O)c(N=Nc4ccc(Oc5ccc(Oc6ccc(N=Nc7ccc(O)cc7O)cc6)cc5)cc4)c(N)c3c2O)cc1 (stereo not drawn) [Ex. 6]", "strains TA98", 1.01),
    ("Cc1ccccc1N=Nc1c(S(=O)(=O)O)cc2cc(S(=O)(=O)O)c(N=Nc3ccc(Oc4ccc(Oc5ccc(N=Nc6ccc(O)cc6O)cc5)cc4)cc3)c(N)c2c1O [Ex. 7]", "strains TA98", 0.95),
    ("Cc1cc(-c2ccc(N=Nc3c(S(=O)(=O)O)cc4cc(S(=O)(=O)O)c(N=Nc5ccccc5)c(O)c4c3N)c(C)c2)ccc1N=Nc1ccc(N)cc1N [compound 1, reference compound]", "strains TA98", 0.72),
    ("Nc1ccc(N=Nc2ccc(S(=O)(=O)c3ccc(N=Nc4c(S(=O)(=O)O)cc5cc(S(=O)(=O)O)c(N=Nc6ccccc6)c(O)c5c4N)cc3)cc2)c(O)c1 [compound 2, reference compound]", "strains TA98", 1.10),
    ("Nc1ccc(N=Nc2ccc(Oc3ccc(Oc4ccc(N=Nc5c(S(=O)(=O)O)cc6cc(S(=O)(=O)O)c(N=Nc7ccc(S(=O)(=O)O)cc7)c(O)c6c5N)cc4)cc3)cc2)c(O)c1 [Ex. 8]", "strains TA98", 1.05),
]

Please look at Nc1c(N=Nc2ccc(Oc3cccc(Oc4ccc(N=Nc5ccc(O)cc5O)cc4)c3)cc2)c(S(=O)(=O)O)cc2cc(S(=O)(=O)O)c(N=Nc3ccccc3)c(O)c12 [Ex. 2] and tell me its recorded Ames test: ratio of number of colonies to control on strains TA98.
1.07

Look up strains TA98 data: Ames test: ratio of number of colonies to control of Nc1ccc2c(O)c(N=Nc3ccccc3)c(S(=O)(=O)O)cc2c1N=Nc1ccc(Oc2ccc(Oc3ccc(N=Nc4ccc(O)cc4O)cc3)cc2)cc1 [Ex. 11] , then report it.
0.96

Specify the recorded Ames test: ratio of number of colonies to control for Nc1ccc(N=Nc2ccc(Oc3cccc(Oc4ccc(N=Nc5cc(S(=O)(=O)O)c6cc(S(=O)(=O)O)c(N=Nc7ccccc7)c(O)c6c5N)cc4)c3)cc2)c(O)c1 [Ex. 9] , system: strains TA98.
0.85

State recorded Ames test: ratio of number of colonies to control with strains TA98, entry Nc1c(N=Nc2ccc(Oc3ccc(Oc4ccc(N=Nc5ccc(O)cc5O)cc4)cc3)cc2)c(S(=O)(=O)O)cc2cc(S(=O)(=O)O)c(N=Nc3ccccc3)c(O)c12 [Ex. 5] , no comment.
0.89

* * *

# Tested on: strains TA98
# Format: cell-based
# test.parameters: 313 μg/plate, with S-9
# Method: Regarding various specimen solutions respectively containing trisazo dyes obtained in Examples 1 to 11 to the present invention and dyes of Comparative Examples 1 to 3, the number of mutant colonies was determined using strains TA98. 2. When the ratio is less than 2, it is "negative" and, when the ratio is more than 2, it is "positive", and the results are shown in Table. 1.
Reported Ames test: ratio of number of colonies to control by item:
Just the number.

See these solved cases before continuing.
# compound, data.value
data = [
    ("Nc1ccc(N=Nc2ccc(Oc3ccc(Oc4ccc(N=Nc5c(S(=O)(=O)O)cc6cc(S(=O)(=O)O)c(N=Nc7ccccc7)c(O)c6c5N)cc4)cc3)cc2)c(O)c1", 0.99),
    ("Cc1ccccc1N=Nc1c(S(=O)(=O)O)cc2cc(S(=O)(=O)O)c(N=Nc3ccc(Oc4ccc(Oc5ccc(N=Nc6ccc(O)cc6O)cc5)cc4)cc3)c(N)c2c1O", 1.00),
    ("Nc1ccc(N=Nc2ccc(Oc3cccc(Oc4ccc(N=Nc5c(S(=O)(=O)O)cc6cc(S(=O)(=O)O)c(N=Nc7ccccc7)c(O)c6c5N)cc4)c3)cc2)c(O)c1", 1.06),
    ("Nc1c(N=Nc2ccc(Oc3cccc(Oc4ccc(N=Nc5ccc(O)cc5O)cc4)c3)cc2)c(S(=O)(=O)O)cc2cc(S(=O)(=O)O)c(N=Nc3ccccc3)c(O)c12", 1.39),
]

In one line, give reported Ames test: ratio of number of colonies to control of the entry Nc1c(N=Nc2ccc(Oc3ccc(Oc4ccc(N=Nc5ccc(O)cc5O)cc4)cc3)cc2)cc(S(=O)(=O)O)c2ccc(N=Nc3ccccc3)c(O)c12 .
0.85

Specify measured Ames test: ratio of number of colonies to control for Cc1cc(-c2ccc(N=Nc3c(S(=O)(=O)O)cc4cc(S(=O)(=O)O)c(N=Nc5ccc(S(=O)(=O)O)cc5)c(O)c4c3N)c(C)c2)ccc1N=Nc1ccc(O)cc1O [compound 3, reference compound] .
4.16
